system-name: G-protein coupled receptor 35 (Homo sapiens) (UniProt Q9HC97)
Sequence (Q9HC97 whole entry, looked up): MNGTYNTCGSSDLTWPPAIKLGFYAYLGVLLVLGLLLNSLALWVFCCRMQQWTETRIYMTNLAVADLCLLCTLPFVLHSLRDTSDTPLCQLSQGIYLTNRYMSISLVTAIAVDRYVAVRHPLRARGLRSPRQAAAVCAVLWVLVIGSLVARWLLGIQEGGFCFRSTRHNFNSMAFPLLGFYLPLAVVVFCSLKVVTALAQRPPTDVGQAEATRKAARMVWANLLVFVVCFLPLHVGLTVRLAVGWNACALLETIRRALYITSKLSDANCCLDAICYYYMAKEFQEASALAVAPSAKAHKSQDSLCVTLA
assay-summary: inhibition of zaprinast-stimulated GPR35 beta-arrestin translocation – imaging, U2OS, beta-arrestin-GFP, zaprinast agonist, primary screen (AID 2058)
test-parameters: zaprinast antagonism, at 10 µM, active compounds read high
In all, about 290,000 compounds went through this assay and about 150 (0.052%) were called active. This excerpt belongs to a sample that is enriched for actives. Potency and affinity values are given separately.
Assign met whenever inhibition does not fall below 10%; assign not met whenever it does.

compound="CCOc1ccc(C2C(C(=O)c3ccc(C)o3)=C(O)C(=O)N2c2nc(C)c(C(=O)OC)s2)cc1 (stereo unspecified)" class_name="not met"
compound="Cc1cc(C)c(S(=O)(=O)N2CCCOC2CNC(=O)C(=O)NCc2cccs2)c(C)c1 (stereo unspecified)" class_name="not met"
compound=CC(C)c1cc(=O)oc2c3c4c(cc12)CCCN4CCC3 class_name="not met"
compound=Nc1nonc1-n1nnc(C(=O)N/N=C/c2ccc(OCc3ccc(F)cc3)cc2)c1COc1ccccc1 class_name="not met"
compound=COC(=O)c1cnn(-c2ccccc2)c1/C=N/NC(=S)Nc1ccccc1 class_name=met
compound=COc1cc(/C=N/NC(=O)CC2(C)OCCCO2)ccc1OCc1ccccc1 class_name="not met"
compound="CC(NC(=O)CN1CCCC1)C12CC3CC(CC(C3)C1)C2 (stereo unspecified)" class_name="not met"
compound="CC(C)C(C)NC(=O)CN1C(=O)NC2(CCc3ccccc32)C1=O (stereo unspecified)" class_name="not met"
compound=COc1ccc2nc(N=NC3=C(O)CC(C)(C)CC3=O)sc2c1 class_name="not met"
compound=O=[N+]([O-])c1c(Nc2cccc(O)c2)cc(Cl)c2nonc12 class_name=met
compound="O=C(c1ccsc1)N1CCCC(Nc2ccc(F)c(F)c2)C1 (stereo unspecified)" class_name="not met"
compound=CCS(=O)(=O)c1ncc(Cl)c(C(=O)Nc2ccc(S(=O)(=O)N3CCC(C)CC3)cc2)n1 class_name=met
compound=CC(=O)N1C=Cc2c(c(C)c3c([nH]c4ccccc43)c2C)C1 class_name=met
compound=O=C(CCCn1c(=O)[nH]c2cc(Cl)ccc2c1=O)NCCCN1CCCC1 class_name="not met"
compound=CCN1CC=C2C(C#N)=C(N)C(C#N)(C#N)[C@H](c3cccc(OC)c3OC)[C@H]2C1 class_name=met
compound=CCc1ccc(/C=C2/SC(=S)N(CCC(=O)Nc3cccc(C(=O)O)c3)C2=O)cc1 class_name="not met"
compound=COc1cc(/C=C2/SC(=S)N(Cc3ccccc3)C2=O)ccc1O class_name="not met"
compound=O=[N+]([O-])c1c(-c2cn[nH]c2)n[nH]c1-c1cn[nH]c1 class_name="not met"
compound="COC(=O)c1sc(N2C(=O)C(O)=C(C(=O)c3ccc(C)o3)C2c2ccc(F)cc2)nc1C (stereo unspecified)" class_name=met
compound=O=C(CCCN1C(=O)/C(=C\c2cccs2)SC1=S)Nc1cccc(C(=O)O)c1 class_name="not met"
compound="CCOC(=O)N1CC=C2C(C#N)=C(N)C(C#N)(C#N)[C@H](c3cccs3)C2C1 (stereo partly specified)" class_name=met
compound=Cn1cc(CN2CCC(n3nccc3NC(=O)c3ccccc3Cl)CC2)cn1 class_name="not met"
compound=CC(=O)N1CCc2[nH]c3ccccc3c2C1 class_name="not met"
compound=COc1ccc(/C=C2\SC(=S)N(CCCC(=O)Nc3ccc(C(=O)O)cc3)C2=O)cc1OC class_name=met
compound=Cc1ccc(-c2c(C(=O)N/N=C/c3ccc(C)o3)nnn2-c2nonc2N)cc1 class_name="not met"
compound="N#CC(C#N)=C1C=C2C=C(N3CCCCC3)CCC2CC1 (stereo unspecified)" class_name=met
compound=CC(C)(C)c1ccc(/C=C2\CCn3c2nc2cc(C(=O)O)ccc2c3=O)cc1 class_name=met
compound="COC(=O)c1sc(N2C(=O)C(O)=C(C(=O)c3ccc(C)o3)C2c2ccc([N+](=O)[O-])cc2)nc1C (stereo unspecified)" class_name="not met"
compound="O=C(/C=C/c1ccccc1)NC(NC(=S)Nc1ccc(Cl)cc1)C(Cl)(Cl)Cl (stereo unspecified)" class_name="not met"
compound=COc1ccc(/C=C2\SC(=S)N(CCCC(=O)Nc3ccc(O)cc3)C2=O)cc1 class_name=met
compound=Cc1ccc(/C=C2/SC(=S)N(CCCC(=O)Nc3ccc(O)cc3)C2=O)cc1 class_name=met
compound="CCC1CCCCN1S(=O)(=O)c1ccc(NC(=O)c2ccncc2)cc1 (stereo unspecified)" class_name="not met"
compound=COc1ccc([C@@H]2[C@H]3CN(C(C)=O)CC=C3C(C#N)=C(N)C2(C#N)C#N)c2ccccc12 class_name="not met"
compound=COC(=O)c1cnn(-c2ccccc2)c1/C=N/NC(=S)Nc1ccc(Cl)cc1 class_name="not met"
compound=COc1ccc(/C=C2\SC(=S)N(CCC(=O)Nc3cccc(C(=O)O)c3)C2=O)cc1 class_name="not met"
compound="N#CC(C#N)=C1C=C2C=C(N3CCOCC3)CCC2CC1 (stereo unspecified)" class_name="not met"
compound=COc1ccccc1NC(=O)Cn1c(=O)n(C)c(=O)c2sc3c(c21)COC(C)(C)C3 class_name="not met"
compound="COc1cccc(OC)c1OCc1cc(C2C3CCCC=C3C(C#N)=C(N)C2(C#N)C#N)c(C)cc1C (stereo unspecified)" class_name="not met"
compound=O=C1CN(C(=O)N[C@@H](Cc2ccccc2)C(=O)N[C@@H](Cc2ccccc2)C(=O)O)c2ccccc2N1 class_name="not met"
